Each record here notes measured scaled log2 fold change.
B1: library; numbered along this chain (parent)
chain: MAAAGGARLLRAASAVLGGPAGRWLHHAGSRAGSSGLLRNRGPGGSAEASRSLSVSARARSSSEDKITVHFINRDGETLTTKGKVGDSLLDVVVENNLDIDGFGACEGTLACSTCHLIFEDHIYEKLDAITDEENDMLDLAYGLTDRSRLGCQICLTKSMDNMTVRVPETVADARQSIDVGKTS

Variants of: B1
Assay: scaled log2 fold change in cell abundance, elesclomol vs control (0 = silent mean, 1 = nonsense mean) (scaled log2 ratio); higher = higher viability under elesclomol (loss of FDX1 cuproptosis function);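 note: variant abundance is its share of total variant reads in each endpoint sample, from next-generation sequencing of the integrated ORF PCR-amplified out of genomic DNA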
Details: with ABC1 FDX1 KO; elesclomol 5 nM; glucose 10 mM; 14 days
Give a plain numeric answer without units written out.

// worked examples, scaled log2 fold change included
The recorded scaled log2 fold change for entry `G151W` equals 1.06

Lab note: `K182P` gave scaled log2 fold change of 0.201

Entry under test: `A111D` . Its scaled log2 fold change was -0.231

The variant `A111G` showed scaled log2 fold change equal to -0.0345

scaled log2 fold change for `D101F` is -0.332

The value of scaled log2 fold change measured for the variant `S52G` turned out to be 0.447

// recorded scaled log2 fold change for `R74G` : 0.597

Recorded scaled log2 fold change (variant `A49S` ): 0.123

Others:
`G83L` yielded scaled log2 fold change of 0.777

Looking up `G86C` , I found its scaled log2 fold change recorded as 0.175

// sample `S177F` , its scaled log2 fold change was -0.0241

Given item `L127G` , the value recorded as its scaled log2 fold change is 0.701

Lab note: `L9N` gave scaled log2 fold change of 0.353

Given item `S54H` , the value recorded as its scaled log2 fold change is -0.807

scaled log2 fold change in this record for `D139M` : 0.045

Provenance of the data: the supplement of paper PMC12855868
